- test target: IN-GCN2 interaction (6xHis-IN / GST-GCN2) (UniProt P04585+Q9P2K8)
- Sequence (Q9P2K8 192-1024, other chains not shown): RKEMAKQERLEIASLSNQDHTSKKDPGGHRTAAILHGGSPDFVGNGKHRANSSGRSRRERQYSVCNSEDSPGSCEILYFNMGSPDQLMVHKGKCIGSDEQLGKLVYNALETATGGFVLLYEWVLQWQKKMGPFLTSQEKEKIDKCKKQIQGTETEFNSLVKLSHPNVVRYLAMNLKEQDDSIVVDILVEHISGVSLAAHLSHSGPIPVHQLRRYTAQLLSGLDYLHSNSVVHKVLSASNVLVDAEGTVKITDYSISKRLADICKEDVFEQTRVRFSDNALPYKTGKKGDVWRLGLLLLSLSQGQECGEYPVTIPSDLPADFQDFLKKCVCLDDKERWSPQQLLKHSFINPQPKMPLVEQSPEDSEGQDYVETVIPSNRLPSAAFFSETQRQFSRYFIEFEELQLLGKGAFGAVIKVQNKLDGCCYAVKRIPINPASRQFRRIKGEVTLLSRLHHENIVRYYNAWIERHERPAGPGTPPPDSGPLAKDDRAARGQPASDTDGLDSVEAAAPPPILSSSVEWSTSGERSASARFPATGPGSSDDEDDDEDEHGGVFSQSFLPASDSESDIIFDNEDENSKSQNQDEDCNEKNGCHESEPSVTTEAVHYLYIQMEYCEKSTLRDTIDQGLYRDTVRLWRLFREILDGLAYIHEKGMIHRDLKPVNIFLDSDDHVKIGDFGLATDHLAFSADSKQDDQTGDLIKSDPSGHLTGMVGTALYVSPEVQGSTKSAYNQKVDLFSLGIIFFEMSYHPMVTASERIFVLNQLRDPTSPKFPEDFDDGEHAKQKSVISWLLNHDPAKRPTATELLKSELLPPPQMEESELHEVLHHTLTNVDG
- protocol notes: biochemical
- Assay type: binding, HIV-1 IN; human GCN2
- conditions: screen, single dose 100 µM, single replicate; residual AlphaLISA signal normalized to DMSO control
For each of the compounds below, state its IN-GCN2 interaction (%).
Please provide the amount together with its unit, number first.

Asked: Need IN-GCN2 interaction (%), item `COc1ccc(/C=C/C(=O)c2ccccc2)cc1`
Given back: 81.82%

Asked: Need IN-GCN2 interaction (%), item `COc1ccc(-c2c(C)c(C(=O)O)nc(-c3ccc4c(O)c(OC)c5c(c4n3)=NC(C)(C)N=5)c2N)c(O)c1OC`
Given back: 123.77%

Asked: Need IN-GCN2 interaction (%), item `C[C@@H]1O[C@@H](O[C@@H]2C=C3CC[C@@H]4[C@H](CC[C@]5(C)[C@@H](c6ccc(=O)oc6)CC[C@]45O)[C@@]3(C)CC2)[C@H](O)[C@H](O)[C@H]1O`
Given back: 97.97%

Asked: Need IN-GCN2 interaction (%), item `CC[C@](C)(O)C(=O)O[C@H]1C(=O)O[C@@H]2C[C@H]3C(C)=C[C@H](O)[C@@H](O)[C@]3(C)[C@H]3[C@]4(O)OC[C@]32[C@@H]1[C@@H](C)[C@H]4O`
Given back: 117.58%

Asked: Need IN-GCN2 interaction (%), item `O=C1C=C([C@@H]2O[C@H](CO)[C@@H](O)[C@H]2O)C(=O)N1`
Given back: 117.57%

Asked: Need IN-GCN2 interaction (%), item C[N+]1([O-])[C@@H]2CC[C@H]1CC(OC(=O)C(CO)c1ccccc1)C2 (some centres unmarked)
Given back: 92.58%

Asked: Need IN-GCN2 interaction (%), item `CC1=CC(=O)[C@@H]2C[C@H]1C2(C)C`
Given back: 90.37%

Asked: Need IN-GCN2 interaction (%), item CC[C@@H](O)C[C@H]1CCC[C@@]2(C[C@@H]3OC(=O)/C=C/[C@@](C)(O)[C@@H](O)[C@H](C)[C@@H](O)[C@H](OC4CCC(N(C)C)C(C)O4)[C@@H](O)[C@](C)(O)CCCCC/C=C/[C@@H]4CC(C)(C)O[C@@]4(O)C[C@H](O2)[C@H]3C)O1 (some centres unmarked)
Given back: 52.50%

Asked: Need IN-GCN2 interaction (%), item `CC(=O)O[C@@H]1C[C@H]2C(C)(C)C(=O)C=C[C@]2(C)[C@H]2CC[C@@]3(C)[C@H](c4ccoc4)OC(=O)[C@H]4O[C@]43[C@@]21C`
Given back: 59.74%

Asked: Need IN-GCN2 interaction (%), item `c1ccc2c(c1)cc1c3c(cc4c(c32)OCO4)CCN1`
Given back: 39.07%

Asked: Need IN-GCN2 interaction (%), item `Nc1ncnc2c1ncn2[C@@H]1C=C(CO)[C@@H](O)[C@H]1O`
Given back: 111.58%

Asked: Need IN-GCN2 interaction (%), item `COC(=O)[C@H]1[C@H]2C[C@@H]3c4[nH]c5ccccc5c4CCN3C[C@H]2C[C@@H](OC(=O)c2cc(OC)c(OC)c(OC)c2)[C@@H]1OC`
Given back: 30.11%

Asked: Need IN-GCN2 interaction (%), item O=C(O)C1C2CC3OC(=O)C1C3C2 (centres unmarked)
Given back: 94.03%

Asked: Need IN-GCN2 interaction (%), item `COC(=O)[C@H]1[C@H](O)[C@H](C)[C@@H](O)[C@](C)(O)/C=C(\C)C2=C3C(=C(C)C(=O)c4c(O)c(c(C)c(OC(C)=O)c43)NC(=O)/C(C)=C/C=C\[C@](C)(O)[C@@H](O)[C@@H](C)[C@H]1O)OCO2`
Given back: 73.43%
